Data credit: patent US20210317231A1

Target: T1, human 5T4 oncofoetal antigen (human, UniProt Q13641 32-420)
T1 construct: whole, on cells; also called hu 5T4; human 5T4 antigen
T1 sequence (looked up): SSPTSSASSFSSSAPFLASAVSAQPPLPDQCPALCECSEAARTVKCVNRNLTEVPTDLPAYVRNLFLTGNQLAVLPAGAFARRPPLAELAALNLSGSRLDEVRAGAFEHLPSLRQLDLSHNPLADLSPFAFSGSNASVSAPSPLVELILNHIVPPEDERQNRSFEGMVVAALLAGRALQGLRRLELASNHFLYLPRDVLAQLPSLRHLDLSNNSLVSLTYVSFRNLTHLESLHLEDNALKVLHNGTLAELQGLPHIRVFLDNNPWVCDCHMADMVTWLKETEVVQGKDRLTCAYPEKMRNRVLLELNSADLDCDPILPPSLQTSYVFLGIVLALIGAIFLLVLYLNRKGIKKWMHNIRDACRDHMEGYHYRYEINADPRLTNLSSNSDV
Experiment: flow cytometry, MDA-MB-468 cells
Hi there, I'd appreciate the recorded EC50 for every entry that follows.
Answers are plain numbers, in µg/mL.

binder	recorded_metric	experimental_value
chimeric anti-5T4 monoclonal antibody 841 (antibody, human IgG1, V domains shown) VH: QSLEESGGRLVTPGTPLTLTCKASGFSLSTYWMSWVRQAPGKGLEWIGIMLSYGNTVYANWAKGRFTISKTSSTTVDLKITSPTTEDTATYFCARGLYGGYPNYGVYDLWGQGTLVTVSS VL: DVVMTQTPASVEAAVGGTVTIKCQASQSISSYLSWYQQKPGQPPKLLIYAASNLASGVSSRFKGSRSGTEYTLTISDLESADAATYYCQCTDYGSNYVGAFGGGTEVVVK	EC50	0.1

Switching to the query record.
Challenge: Which EC50 is listed for chimeric anti-5T4 monoclonal antibody 835 (antibody, human IgG1, V domains shown) VH: QSVEESGGRLVTPGTPLTLTCTVSGIDLSSGAMGWVRQAPGKGLEWIGLISSSPITYYANWARGRFTISKTSTTVDLKITSPTTADTATYFCARGYDDYGEIWFNIWGPGTLVTVSL VL: AIEMTQSPPSLSASVGETVRIRCLAGEDIYSSISWYQQKPGKPPTLLIYGASNLESGVPPRFSGSGSGTDYTLTIGGVQAEDAATYYCLGGWSYSSSLTFGAGTKVEIK ?
Response given: 0.09
